B1: HDV Ribozyme (parent)
chain: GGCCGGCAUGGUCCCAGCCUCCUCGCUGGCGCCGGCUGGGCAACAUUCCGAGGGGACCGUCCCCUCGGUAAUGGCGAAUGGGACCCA

Variants of: B1
Experiment: self-cleavage, relative activity (ratio to wild type); higher = more cleavage; co-transcriptional
metric: self-cleavage
I'd appreciate a reply containing only the number, no unit.

**Q:** Recorded self-cleavage for GGCCGGCAUGGUCCCAGCCUCCUCGCUGGCGCCGGCUGGGCAACAUUCCGAGGGGACCGUCCCCUCGGAAAUGGCGAAUGGUACCCA [U69A G82U] , please?
**A:** 0.491

**Q:** Given GGCCGGCAUGGUCCCAGCCUCCUCGCUGGCGCCGGCUGGGCAACAUUCCGAGGGGACCGUCCCCUCGGCAAUGGGGAAUGGGACCCA [U69C C75G] , state its recorded self-cleavage.
**A:** 0.213

**Q:** Which self-cleavage value belongs to GGCCGGCAUGGUCCCAGCCUCCUCGCUGACGCCGCCUGGGCAACAUUCCGAGGGGACCGUCCCCUCGGUAAUGGCGAAUGGGACCCA [G29A G35C] ?
**A:** 0.149

**Q:** Need self-cleavage of GGCCGGCAUGGUCCCAGCCUCCUCGCUGGCGCCUGCUGGGCAACAUUCCGAGGGGACCGUCCCCUCGGUGAUGGCGAAUGGGACCCA [G34U A70G] , thanks.
**A:** 0.0997

**Q:** Quick one: self-cleavage for GGCCGGCAUGGUCCCAGCCUCCUCGCUGGCGACGGCUGGGCAACAUUCCGAGGGGACUGUCCCCUCGGUAAUGGCGAAUGGGACCCA [C32A C58U] ?
**A:** 0.208

**Q:** Need self-cleavage of GGCCGGCAUAGUCCCACCCUCCUCGCUGGCGCCGGCUGGGCAACAUUCCGAGGGGACCGUCCCCUCGGUAAUGGCGAAUGGGACCCA [G10A G17C] , thanks.
**A:** 0.341

**Q:** Name the reported self-cleavage value associated with the variant GGCCGGCAUGGUCCCAGCCUCCUCGCUGGCGCCGGCUGGGCAACAUUCCGAGGGGACCGUCCCCUCGCUAAUGGCGAAUGCGACCCA [G68C G81C]
**A:** 0.0594

**Q:** self-cleavage for GGCCUGCAUGGUCCCAGCCUCCUCGCUGGCGCCGGCUGGGCAACAUUGCGAGGGGACCGUCCCCUCGGUAAUGGCGAAUGGGACCCA [G5U C48G] ?
**A:** 0.554

**Q:** Dear colleague, I am looking for the recorded self-cleavage of the following variant: GGCCGGCAUGGUCCCAGCCUCCUCGCUGGCGCCGGUUGGGCAACAUUCCGAGGGGACCUUCCCCUCGGUAAUGGCGAAUGGGACCCA [C36U G59U]
**A:** 0.806

**Q:** Record request: self-cleavage value, item GGCCGGCAUCGUCCCAGCCUCCUCGCUGGCGCCGGCUGGGCAACAUUCCGAGGGGACCGUCCCCUCGGUAAUCGCGAAUGGGACCCA [G10C G73C]
**A:** 0.277

**Q:** Find the recorded self-cleavage belonging to GGCCGGCAUGGUCCCAGCCUCCUCGCUGGCGCCGCCUGGGCAACAUUCCGAGGAGACCGUCCCCUCGGUAAUGGCGAAUGGGACCCA [G35C G54A] and report it.
**A:** 0.151

**Q:** Field request: self-cleavage | item: GGCCGGCAUGGUCCCAGCCUCCUCGCUGGCGCCGGCUGGGGAACAUUCCGAGUGGACCGUCCCCUCGGUAAUGGCGAAUGGGACCCA [C41G G53U]
**A:** 0.53

**Q:** Any idea what self-cleavage was measured for GGCCGGCAUGGUCCCAGCCUCCUCGUUGGCGCCGGCUGGGCAACAUUCCGAGGGUACCGUCCCCUCGGUAAUGGCGAAUGGGACCCA [C26U G55U] ?
**A:** 0.929

**Q:** GET /values?readout=self-cleavage&item= GGCCGGUAUGGUCCCAGCCUCCUCGCUGGCGCCGGCUGGACAACAUUCCGAGGGGACCGUCCCCUCGGUAAUGGCGAAUGGGACCCA [C7U G40A]
**A:** 0.752

**Q:** // lookup self-cleavage for GGACGGCAUGAUCCCAGCCUCCUCGCUGGCGCCGGCUGGGCAACAUUCCGAGGGGACCGUCCCCUCGGUAAUGGCGAAUGGGACCCA [C3A G11A]
**A:** 0.236

**Q:** Look at this variant and give its reported self-cleavage. GGCCGGCAUGGUCCCAGCCUCCUCGCUGGCGCCGGCUGGGCAACAUUCCGAGGGGACCGUCCCCACGGUAAUGGCGAAUUGGACCCA [U65A G80U]
**A:** 0.279

The measured values listed here are drawn from the RNAGym collection of RNA variant scans (doi:10.7554/elife.80360).
